System: PCB-490-4 (human epithelioid sarcoma primary culture)
Reported IC50 cell viability values are given for each entry in this list.

molSmiles | relationOperator | IC50 cell viability (µM)
CN(C(=O)c1ccc(F)cc1C(F)(F)F)C1CCN(c2nnc(-c3ccnn3C)c3ccccc23)CC1 | > | 10
CO[C@@H]1[C@H](N(C)C(=O)c2ccccc2)C[C@H]2O[C@]1(C)n1c3ccccc3c3c4c(c5c6ccccc6n2c5c31)C(=O)NC4 | = | 1.25
Cc1ccc(S(=O)(=O)/C=C/C#N)cc1 | = | 1.93
CC[C@H](C)n1cc(C)c2c(C(=O)NCc3c(C)cc(C)[nH]c3=O)cc(-c3ccc(N4CCNCC4)nc3)cc21 | > | 10
Nc1nc(Nc2ccc(S(N)(=O)=O)cc2)nn1C(=S)Nc1c(F)cccc1F | = | 1.02
CNC(=O)CN1CCC(Oc2cc3c(Nc4cccc(Cl)c4F)ncnc3cc2OC)CC1 | > | 10
CC(C)N(CCCNC(=O)Nc1ccc(C(C)(C)C)cc1)C[C@H]1O[C@@H](n2cc(Br)c3c(N)ncnc32)[C@H](O)[C@@H]1O | > | 10
C[C@@H](Oc1ccc2[nH]nc(/C=C/c3cnn(CCO)c3)c2c1)c1c(Cl)cncc1Cl | = | 0.5

###

Hi! I'm sharing some IC50 cell viability results obtained with PCB-490-4.
measuredAttribute: IC50 cell viability

molSmiles | measuredAttribute | readoutValue
Cc1cc(-c2ncc(CC(=O)Nc3ccc(-c4cnccn4)cn3)cc2C)ccn1 | IC50 cell viability | > 10 µM
O=C(O)c1ccc2c(c1)nc(Nc1cccc(Cl)c1)c1ccncc12 | IC50 cell viability | 6.52 µM
O=C1NC(=O)C(c2cnc3ccccn23)=C1c1cn2c3c(cc(F)cc13)CN(C(=O)N1CCCCC1)CC2 | IC50 cell viability | > 10 µM
CS(=O)(=O)c1cccc(CNc2nc(Nc3ccc4c(c3)CCC(=O)N4)ncc2C(F)(F)F)c1 | IC50 cell viability | > 10 µM
Nc1ccccc1NC(=O)c1ccc(CNC(=O)OCc2cccnc2)cc1 | IC50 cell viability | > 10 µM
Cc1[nH]c2ccccc2c1CCNCc1ccc(/C=C/C(=O)NO)cc1 | IC50 cell viability | 0.17 µM
O=c1ncccn1[C@@H]1O[C@H](CO)[C@@H](O)[C@H]1O | IC50 cell viability | > 10 µM
Nc1nc2c(ncn2COC(CO)CO)c(=O)[nH]1 | IC50 cell viability | > 10 µM
Cc1ccc(-c2cc(C(F)(F)F)nn2-c2ccc(S(N)(=O)=O)cc2)cc1 | IC50 cell viability | > 10 µM

###

Reported IC50 cell viability values are given for each entry in this list.
Tested on: ESX

compound | relationOperator | IC50 cell viability (µM)
CC(C)(C)Cn1c(N)nc2ccc(-c3[nH]c(C(C)(C)C)nc3-c3ccc(F)cc3)nc21 | = | 5.07
Nc1nc2c(ncn2COC(CO)CO)c(=O)[nH]1 | > | 10
Clc1ccc(NN=C(c2ccccc2)c2ccccn2)nc1 | = | 0.6
Cc1cc(Nc2cc(N3CCN(C)CC3)nc(Sc3ccc(NC(=O)C4CC4)cc3)n2)n[nH]1 | > | 10
CC(C)(C(=O)NCC(F)(F)C(F)(F)F)C(=O)N[C@@H]1C(=O)Nc2ccccc2-c2ccccc21 | > | 10
CN[C@@H](C)C(=O)N[C@H](C(=O)N1CCC[C@H]1c1nc(C(=O)c2ccc(F)cc2)cs1)C1CCCCC1 | = | 1.8
CO[C@@H]1[C@H](N(C)C(=O)c2ccccc2)C[C@H]2O[C@]1(C)n1c3ccccc3c3c4c(c5c6ccccc6n2c5c31)C(=O)NC4 | = | 6.4
COc1ccc(C[C@@H](C)[C@@H](C)Cc2ccc(OC)c(OC)c2)cc1OC | > | 10
COCC1(CO)C(=O)C2CCN1CC2 (centres undefined) | = | 0.13
